Target: Beta-glucosidase A (Caldicellulosiruptor saccharolyticus, UniProt P10482)
Sequence (P10482 whole entry): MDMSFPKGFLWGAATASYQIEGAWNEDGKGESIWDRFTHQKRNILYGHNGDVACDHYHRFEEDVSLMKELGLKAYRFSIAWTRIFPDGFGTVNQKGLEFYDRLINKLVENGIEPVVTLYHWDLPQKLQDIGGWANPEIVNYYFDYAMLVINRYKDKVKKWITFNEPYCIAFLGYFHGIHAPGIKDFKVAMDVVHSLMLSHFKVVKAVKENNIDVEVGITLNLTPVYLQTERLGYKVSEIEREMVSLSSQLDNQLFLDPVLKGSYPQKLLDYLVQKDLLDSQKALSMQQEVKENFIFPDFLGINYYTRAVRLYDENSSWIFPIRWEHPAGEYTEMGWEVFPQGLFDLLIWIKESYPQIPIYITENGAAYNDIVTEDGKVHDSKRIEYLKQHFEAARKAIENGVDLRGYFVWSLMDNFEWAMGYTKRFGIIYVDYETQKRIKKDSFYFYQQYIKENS
measure: IC50

Prompt line: Jot down IC50 (Beta-glucosidase A (Caldicellulosiruptor saccharolyticus, UniProt P10482)) of CC1(C)O[C@@H]2O[C@H]3C(CO)=NO[C@H]3[C@@H]2O1 .
Response line: 550 µM

* * *

Target: UniProt P10482
Assay: Inhibitory activity against beta-glucosidase from Caldocellum saccharolyticum at a concentration of 1 mM; No activity
The source made the active and inactive calls. The rule behind the calls is not given here.

{"molecule": "CC1(C)O[C@@H]2O[C@H]3C(C4N[C@@H](c5ccccc5)[C@H](c5ccccc5)N4)=NO[C@H]3[C@@H]2O1", "Activity": "inactive"}
{"molecule": "CCOC(OCC)C1=NO[C@H]2[C@H](O)C(O)O[C@@H]12 (some centres undefined)", "Activity": "inactive"}
{"molecule": "CC1(C)O[C@@H]2O[C@H]3C(C=O)=NO[C@H]3[C@@H]2O1", "Activity": "inactive"}
{"molecule": "CC1(C)O[C@H]2O[C@@H]3C(C4N[C@@H](c5ccccc5)[C@H](c5ccccc5)N4)=NO[C@@H]3[C@H]2O1", "Activity": "inactive"}

The reported numbers originate from ChEMBL document CHEMBL1132029.
